The following molecules are listed with their measured Percentage (%) bound of compound to 14-3-3σ, ERα 1h values.
- measurement_target: 14-3-3σ/ERα (Homo sapiens, UniProt P03372+P31947)
- Construct: The 14-3-3 σ isoform (full-length for mass spectrometry and fluorescence anisotropy assays, ΔC for crystallography); made in house; host or cells: E. coli Rosetta 2(DE3)pLysS, pPROEX HTb vector
- Sequence (P31947 whole entry, other chains not shown, canonical isoform): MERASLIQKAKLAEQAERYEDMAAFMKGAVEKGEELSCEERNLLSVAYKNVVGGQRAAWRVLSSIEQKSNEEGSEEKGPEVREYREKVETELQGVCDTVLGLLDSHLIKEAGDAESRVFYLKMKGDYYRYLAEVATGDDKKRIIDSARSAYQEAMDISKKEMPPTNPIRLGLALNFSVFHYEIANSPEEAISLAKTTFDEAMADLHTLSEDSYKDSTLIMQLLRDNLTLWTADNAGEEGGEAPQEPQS
- assay_protocol: Mass spectrometry dose response, compound binding to 14-3-3σ in the presence of ERα phosphopeptide
- condition_label: 100 nM compound, 100 nM 14-3-3σ, ERα-peptide 2 µM, 1h
Numeric answer only, unit % assumed.

Some molecules with recorded Percentage (%) bound of compound to 14-3-3σ, ERα 1h:
The recorded Percentage (%) bound of compound to 14-3-3σ, ERα 1h for entry O=C(CCl)NCC1CCN(C(=O)C2(Nc3ccc(Cl)cc3)CCNCC2)CC1 equals 54.4

get_value(item= O=C(CCl)NCC1CCN(C(=O)C2(Nc3ccc(Cl)cc3)CCCC2)CC1 , readout=Percentage (%) bound of compound to 14-3-3σ, ERα 1h) returns 11.2

Percentage (%) bound of compound to 14-3-3σ, ERα 1h for O=C(CCl)N1CCC2(CC1)CC(NC(=O)C1(Nc3ccc(Cl)cc3)CCOCC1)C2 is 42.3

Notebook: O=C(CCl)NCC1CCN(C(=O)C2(Oc3ccc(Cl)cc3)CCC(F)(F)CC2)CC1 , Percentage (%) bound of compound to 14-3-3σ, ERα 1h read as 7.4

Lab book: Percentage (%) bound of compound to 14-3-3σ, ERα 1h of NC1CCC(Oc2ccc(Cl)cc2)(C(=O)N2CCC(CNC(=O)CCl)CC2)CC1 (stereo not shown) noted as 11.3

---
Sure, the documented Percentage (%) bound of compound to 14-3-3σ, ERα 1h for CC(C)(Oc1ccc(Cl)cc1)C(=O)N1CCC(CCNC(=O)CCl)CC1 is 0.3

GET /value?item= O=C(CCl)NCCC1CCN(C(=O)C2(Nc3ccc(Cl)cc3)CCOCC2)CC1 &field=Percentage (%) bound of compound to 14-3-3σ, ERα 1h returns 0

Short answer for O=C(CCl)NCC1CCN(C(=O)C2(Nc3ccc(Cl)cc3)CC2)CC1 : Percentage (%) bound of compound to 14-3-3σ, ERα 1h was 1.0

Form field Percentage (%) bound of compound to 14-3-3σ, ERα 1h, entry O=C(CCl)NCC1CCN(C(=O)C2(Oc3ccc(Cl)cc3)CCCC2)CC1 : 5.6

According to the records, this molecule CC(C)(Oc1ccc(Cl)cc1)C(=O)N1CCC(NC(=O)CCl)CC1 displays Percentage (%) bound of compound to 14-3-3σ, ERα 1h of 0

Query C=CS(=O)(=O)NCC1CCN(C(=O)C(C)(C)Oc2ccc(Cl)cc2)CC1 yields Percentage (%) bound of compound to 14-3-3σ, ERα 1h of 0.8

The molecule listed as O=C(CCl)NCC1CCN(C(=O)C2(Oc3ccc(Cl)cc3)CCCCC2)CC1 shows Percentage (%) bound of compound to 14-3-3σ, ERα 1h equal to 1.6

Just so you know, measured Percentage (%) bound of compound to 14-3-3σ, ERα 1h for CC(C)(Nc1ccc(Cl)cc1)C(=O)N1CCC(CNC(=O)CCl)CC1 came out at 0.9
